The reported measurements were obtained from paper PMC9344678.

Target: T1, BORIS N-terminal region AA 1-258 (BORIS-N_(1-258)), His-tagged, from bacteria (human, UniProt Q8NI51 1-258, biotin (conjugated for loading onto the SSA sensor; position not stated; not said of the protein used free in solution or coated on plates))
T1 construct: Cloned in the backbone of plasmid pFN6K; also called BORIS antigen; not shown: His6, C-terminal, kept
T1 sequence (looked up): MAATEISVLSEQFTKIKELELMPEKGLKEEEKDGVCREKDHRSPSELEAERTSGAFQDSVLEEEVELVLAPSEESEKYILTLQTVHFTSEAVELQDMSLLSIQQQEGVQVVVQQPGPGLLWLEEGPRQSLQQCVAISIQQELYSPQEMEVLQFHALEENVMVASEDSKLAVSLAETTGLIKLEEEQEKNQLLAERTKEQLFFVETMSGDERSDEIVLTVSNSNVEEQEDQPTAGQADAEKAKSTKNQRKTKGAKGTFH
Assay: BLI; ForteBio OctetRed; biotin-conjugated BORIS-N_(1-258) loaded onto an SSA sensor (1 µM in loading), free peptide in solution in PBS with 0.02% Tween 20
Conditions: both partners purified
experimental readout: Kd (µM)
Output spec: scalar in µM, unitless text.

>>> quantitative_result("VHWDFRQWWQPS (12-mer selected from the Ph.D.-12 phage display peptide library; The methods say that the peptides were synthesized and conjugated with biotin or FITC; also called peptide from phage clone 9; BTApep; source: synthetic peptide (China Peptides Co., Ltd.)) [Peptide 9 (synthesized, free in solution)]")
86.4

Please turn your attention to the following entry.
I'd like to know its Kd. The binder in question is DWSSWVYRDPQT (12-mer selected from the Ph.D.-12 phage display peptide library; source: synthetic peptide (China Peptides Co., Ltd.)) [Peptide 2] 314
